assayed system: T1, cynomolgus monkey CD8A on primary cynomolgus monkey CD8+ T cells (cynomolgus monkey, UniProt P01732 23-235 (human entry))
T1 construct: also called Cyno CD8alpha
T1 sequence (P01732 other isoform, or with tags, fused parts or gaps limits assumed): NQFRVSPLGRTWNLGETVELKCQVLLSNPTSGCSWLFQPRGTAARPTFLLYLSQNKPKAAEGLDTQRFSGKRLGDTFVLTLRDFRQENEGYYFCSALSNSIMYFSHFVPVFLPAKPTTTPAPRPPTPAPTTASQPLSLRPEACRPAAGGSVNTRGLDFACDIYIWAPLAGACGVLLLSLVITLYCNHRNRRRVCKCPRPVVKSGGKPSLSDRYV
test method notes: flow cytometry, cyno CD8+ T cells, 2 uM FN3
Procedure: Binding of the 190 ELISA hits to human and cynomologous monkey primary CD8 T cells was assessed by flow cytometry. The FN3 domain molecules were diluted to 2 μM and 0.2 μM in PBS and incubated with human or cynomologous monkey CD8+ T cells in 96-well format. […] Cells were gating on live cells and median fluorescence intensity of the bound Centyrins (PE channel) was calculated using Cytobank software.
Quick reference: Cyno T-cell Binding 2 uM (MFI) of the listed items.
measured attribute: Cyno T-cell Binding 2 uM (MFI)

1. P282DR9P1359_E11 (designed binder, FN3 domain) LPAPKNLVVSRVTEDSARLSWTAPDAAFDSFYISYPEWPPVGEAIVLTVPGSERSYDLTGLKPGTEYWVIIYGVKGGAISTPLSAIFTT :: 104000
2. P283AR9P1362_D3 (designed binder, FN3 domain) LPAPKNLVVSRVTEDSARLSWPVESNAFDSFLIQYQESEKVGEAIVLTVPGSERSYDLTGLKPGTEYTVSIYGVDVEYDQHGRPRWSNPLSAIFTT :: 34600
3. P282DR9P1359_F7 (designed binder, FN3 domain) LPAPKNLVVSRVTEDSARLSWTAPDAAFDSFAIAYPEWPPQGEAIVLTVPGSERSYDLTGLKPGTEYFVVIYGVKGGSYSAPLSAIFTT :: 96500
4. P282DR9P1359_E8 (designed binder, FN3 domain) LPAPKNLVVSRVTEDSARLSWTAPDAAFDSFQIAYPEWPVIGEAIVLTVPGSERSYDLTGLKPGTEYWVIIQGVKGGYTSWPLSAIFTT :: 81000
5. P282ER9P1360_G10 (designed binder, FN3 domain) LPAPKNLVVSRVTEDSARLSWTAPDAAFDSFAIWYVEQHPFGEAIPLFVPGSERSYDLTGLKPGTEYTVGIRGVKGGNFSTPLIAHFTT :: 62700
6. P283BR9P1363_A8 (designed binder, FN3 domain) LPAPKNLVVSRVTEDSARLSWVRSDTARFFDSFLIQYQESEKVGEAIVLTVPGSERSYDLTGLKPGTEYTVSIYGVDVKYDIDSRPISSNPLSAIFTT :: 24200
7. P283AR9P1362_F12 (designed binder, FN3 domain) LPAPKNLVVSRVTEDSARLSWARNITSFDSFLIQYQESEKVGEAIVLTVPGSERSYDLTGLKPGTEYTVSIYGVDVKYDIDSRPISSNPLSAIFTT :: 26300
8. P282FR9P1361_F7 (designed binder, FN3 domain) LPAPKNLVVSRVTEDSARLSWTAPDAAFDSFPIWYREYATGEAIVLTVPGSERSYDLTGLKPGTEYDVVITGVKGGYPSYPLSAIFTT :: 1700
9. P283AR9P1362_G3 (designed binder, FN3 domain) LPAPKNLVVSRVTEDSARLSWVKRATSFDSFLIQYQESEKVGEAIVLTVPGSERSYDLTGLKPGTEYTVSIYGVDVKWEGNRPVASNPLSAIFTT :: 35300
10. P282CR9P1358_C5 (designed binder, FN3 domain) LPAPKNLVVSRVTEDSARLSWTAPDAAFDSFLIAYPEWPDSGEAIVLTVPGSERSYDLTGLKPGTEYAVFIWGVKGGPLSHPLSAIFTT :: 25700
11. P283BR9P1363_A10 (designed binder, FN3 domain) LPAPKNLVVSRVTEDSARLSWQRADDILPYFDSFLIQYQESEKVGEAIVLTVPGSERSYDLTGLKPGTEYTVSIYGVDVKYDIDSRPISSNPLSAIFTT :: 27800
12. P282DR9P1359_F5 (designed binder, FN3 domain) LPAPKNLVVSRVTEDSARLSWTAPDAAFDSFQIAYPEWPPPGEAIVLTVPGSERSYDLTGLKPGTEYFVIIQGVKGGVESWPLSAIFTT :: 114000
13. P282DR9P1359_E2 (designed binder, FN3 domain) LPAPKNLVVSRVTEDSARLSWTAPDAAFDSFNIFYPEIVTWGEAIVLTVPGSERSYDLTGLKPGTEYWVNIVGVKGGDNSWPLSAIFTT :: 77700
14. P282DR9P1359_C12 (designed binder, FN3 domain) LPAPKNLVVSRVTEDSARLSWTAPDAAFDSFYISYPEWPVPGEAIVLTVPGSERSYDLTGLKPGTEYWVVIYGVKGGALSVPLSAIFTT :: 66500
15. P282BR9P1357_C10 (designed binder, FN3 domain) LPAPKNLVVSRVTEDSARLSWWSNDNRPIFDSFLIQYQESEKVGEAIVLTVPGSERSYDLTGLKPGTEYTVSIYGVDVKWEGNRPVASNPLSAIFTT :: 24500
16. P282CR9P1358_D10 (designed binder, FN3 domain) LPAPKNLVVSRVTEDSARLSWTAPDAAFDSFLISYPEYPPPGEAIVLTVPGSERSYDLTGLKPGTEYFVIIFGVKGGDTSWPLSAIFTT :: 74100
17. P283AR9P1362_C7 (designed binder, FN3 domain) LPAPKNLVVSRVTEDSARLSWVKRATSFDSFLIQYQESEKVGEAIVLTVPGSERSYDLTGLKPGTEYTVSIYGVDVRYNEGQPIWSNPLSAIFTT :: 19700
